Measured reporter increase of individual entries
Assay notes: Bmi1 luciferase reporter increase in mESCs, primary screen, esBAF inhibitor project, mouse ES cells, Bmi1 luciferase knock-in, single point (AID 602393);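 also: 0% = median of the plate's neutral control wells and 100% = double that signal; a rise in the Bmi1 reporter signal indicates esBAF inhibition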
Experimental parameters: 24 h, at 12.5 µM, active compounds read high, 100% = twice the neutral-well signal
About 7,000 (2%) of roughly 350,000 compounds were called active. The entries come from a sample that favours actives as a whole.

Compound	Result
CCCNC(=O)N1C[C@@H](O)COC[C@H]2O[C@H](CC(=O)N3CCC(Cc4ccccc4)CC3)CC[C@@H]21	8.61% (inactive)
Brc1ccccc1C1N=C(c2ccccc2)NO1 (stereo not given)	54.3% (active)

Ask: Need reporter increase of N#Cc1ccc(C2N=C(c3ccccc3)NO2)cc1 (stereo not given) , thanks.
Reply: 65.2% (active)

Ask: Try this compound next: "Cc1ccc2nc(/C(C#N)=C\c3ccc(OC(=O)c4cccs4)cc3)[nH]c2c1"
Reply: 113% (active)

Ask: Also need "CCNC(=O)C[C@@H]1CC[C@H](NC(=O)C2CCC2)[C@@H](CO)O1" , thanks.
Reply: 4.25% (inactive)

* * *

Assay notes: Bmi1 luciferase reporter increase in mESCs, primary screen, esBAF inhibitor project, mouse ES cells, Bmi1 luciferase knock-in, single point (AID 602393)
Experimental parameters: 24 h, at 12.5 µM, 100% = twice the neutral-well signal
Screen size: about 350,000 compounds; about 7,000 (2%) were called active. No stated cut-off is given here; in the data, active means activation above about 40%; inconclusive means no clear call, values can overlap the other calls; inactive means below that. The full list was thinned out, with actives kept by preference.
// allowed return values: yes (active), no (inactive)

Compound	Group
C[C@@H]1CN([C@H](C)CO)C(=O)CCCn2nncc2CO[C@@H]1CN(C)Cc1ccc2c(c1)OCCN2C	no

Ask: Hi, do you know how "COc1ccc(N2C(=O)CN=C2Nc2cccc(C)c2C)cc1OC" came out in this test?
Reply: no

Ask: Now try "CC(C)Cc1ccc(-c2cc3nc(NCc4cccc(Cl)c4)ccn3n2)cc1" .
Reply: yes

Ask: Same thing, different compound: "COCC(=O)Nc1ccc2c(c1)[C@H]1C[C@H](CC(=O)NCc3ccccn3)O[C@H](CO)[C@H]1O2"
Reply: no

Ask: Then what about the compound "COc1ccccc1-c1cc(C(=O)N2CCCCC2)no1" ?
Reply: yes

Ask: Now give it for "O=C(c1cc(-c2cccs2)on1)N1CCCCC1" too.
Reply: no

Ask: Try the compound "Cc1ccc(Nc2nc(C)cc(C)c2C(N)=O)cc1"
Reply: no

* * *

Assay notes: Bmi1 luciferase reporter increase in mESCs, primary screen, esBAF inhibitor project, mouse ES cells, Bmi1 luciferase knock-in, single point (AID 602393)
Experimental parameters: 24 h, at 12.5 µM, active compounds read high, 100% = twice the neutral-well signal
Screen size: about 350,000 compounds; about 7,000 (2%) were called active. Many of the other results were omitted from the sample, so actives are more common in it than they were.
Property label: reporter increase (%)
# number only, unit % dropped from output

Use the examples below as a reference point.
Molecule	reporter increase / %
COc1ccc(C(=O)COC(=O)C(O)c2ccccc2)c(OC)c1 (stereo not given)	67.1
CCOC(=O)c1c(C)[nH]c(C(=O)OCC(=O)c2ccc(OC)cc2OC)c1C	6.18
COc1ccc(C(=O)CCC(=O)Nc2cccnc2)c(OC)c1	-1.7

Ask: Recorded reporter increase of "COc1ccc(NC(=O)N(C)C[C@H]2OCCCC[C@H](C)Oc3ccc(NS(C)(=O)=O)cc3C(=O)N([C@H](C)CO)C[C@@H]2C)cc1" , please.
Reply: 3.29

Ask: Same read-out for "O=C(Cc1ccncc1)N[C@H]1CC[C@H](CCn2cc(-c3ccccc3F)nn2)O[C@@H]1CO" ?
Reply: 12.7

* * *

Assay notes: Bmi1 luciferase reporter increase in mESCs, primary screen, esBAF inhibitor project, mouse ES cells, Bmi1 luciferase knock-in, single point (AID 602393)
Experimental parameters: 24 h, at 12.5 µM, 100% = twice the neutral-well signal
In all, about 350,000 compounds went through this assay and about 7,000 (2%) were called active. No stated cut-off is given here; in the data, active means activation above about 40%; inconclusive means no clear call, values can overlap the other calls; inactive means below that. The entries come from a sample that favours actives as a whole.
Please state which outcome applies, choosing from active, inactive

Compound	Group
Cn1c(SCC(=O)c2ccc(F)cc2)nnc1-c1ccccn1	inactive
CC1CCN(C(=O)c2ccc3c(=O)n4c(nc3c2)CCCCC4)CC1	inactive

Ask: Could you please tell me the result logged for "Cc1ccc(SCC(=O)NC(=O)NCc2ccco2)c(C)c1" in this assay?
Reply: inactive

Ask: Let us now turn to "Cc1cc(C(=O)Nc2cccc3c2O[C@@H](CN(C)S(=O)(=O)c2ccc(F)cc2)[C@@H](C)CN([C@H](C)CO)C3=O)n(C)n1"
Reply: inactive

* * *

# key: entry, value: reporter increase
Assay notes: Bmi1 luciferase reporter increase in mESCs, primary screen, esBAF inhibitor project, mouse ES cells, Bmi1 luciferase knock-in, single point (AID 602393);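 also: 0% = median of the plate's neutral control wells and 100% = double that signal; a rise in the Bmi1 reporter signal indicates esBAF inhibition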
Experimental parameters: 24 h, at 12.5 µM, active compounds read high, 100% = twice the neutral-well signal
Screen size: about 350,000 compounds; about 7,000 (2%) were called active. What follows is part of a selection rich in actives, with near analogues and random picks from the rest.
Record the value in %, omitting the unit from your answer.

Below, each entry is followed by its recorded reporter increase result.
CCn1nccc1C(=O)Nc1ccc(Cl)c(Cl)c1 61.9
O=C(CC(O)(C(F)(F)F)C(F)(F)F)Nc1ccc(Cl)c(Cl)c1 -47.8
N#Cc1ccc(-c2ccc3c(c2)[C@H]2[C@H](CCN2Cc2ccc4c(c2)OCO4)[C@@H](CO)N3)cc1 -8.59
CO[C@@H]1CN(C)C(=O)c2cc(NC(=O)c3ccc(F)cc3)ccc2OC[C@H](C)NC[C@@H]1C 2.56

Ask: What does the record list as reporter increase for "COc1ccc(Nc2ncnc3sc(C)cc23)cc1" ?
Reply: 66.1

Ask: And the next one, "CCn1nccc1C(=O)Nc1ccc(S(=O)(=O)NC23CC4CC(CC(C4)C2)C3)cc1" ?
Reply: 14.5

Ask: Repeat with "C[C@@H]1CN([C@H](C)CO)C(=O)c2cc(NC(=O)c3ccncc3)ccc2O[C@H]1CN(C)C(=O)Nc1ccc(C(F)(F)F)cc1"
Reply: 8.53

Ask: // repeat for "CCC(=O)N1C[C@H](C)[C@H](OC)CN(C)C(=O)c2ccc(NC(=O)c3cnccn3)cc2OC[C@@H]1C" and report
Reply: -10.3

Ask: Another compound to check: "COc1ccc(CNc2ncnc3ccccc23)cc1"
Reply: -11.7

* * *

Assay notes: Bmi1 luciferase reporter increase in mESCs, primary screen, esBAF inhibitor project, mouse ES cells, Bmi1 luciferase knock-in, single point (AID 602393);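 also: 0% = median of the plate's neutral control wells and 100% = double that signal; a rise in the Bmi1 reporter signal indicates esBAF inhibition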
Experimental parameters: 24 h, at 12.5 µM, 100% = twice the neutral-well signal
Out of some 350,000 compounds screened, about 7,000 (2%) were called active. Rule as the data show it: active = activation above about 40%; inconclusive = no clear call, values can overlap the other calls; inactive = below that. The sample holds actives, similar compounds and a random draw of the others, so the mix is not that of the screen.
Reply using exactly one outcome from active, inactive

CN1[C@@H]2CN(C(=O)c3ccc(F)cc3)c3ccccc3[C@@H]2[C@@H]1CO inactive

Ask: Dear colleague, could you share the recorded outcome for "CC(C)NC(=O)N(C)C[C@H]1Oc2ncc(C#CC3CC3)cc2C(=O)N([C@H](C)CO)C[C@@H]1C" when you have a moment?
Reply: inactive

Ask: Next entry: "CCN(CC)c1ccc(C(=O)OCC(=O)c2ccco2)cc1"
Reply: active

Ask: Repeat for the following compound: "O=C(OCc1ccc(-c2ccccc2)cc1)c1cccc(O)c1"
Reply: active

Ask: Let us now turn to "CCc1ccc(C(=O)COC(=O)c2ccco2)cc1"
Reply: inactive

Ask: Let us now turn to "Cn1c(SCc2nc3ccccc3s2)nnc1-c1ccc2c(c1)OCO2"
Reply: active

* * *

Assay notes: Bmi1 luciferase reporter increase in mESCs, primary screen, esBAF inhibitor project, mouse ES cells, Bmi1 luciferase knock-in, single point (AID 602393);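 also: 0% = median of the plate's neutral control wells and 100% = double that signal; a rise in the Bmi1 reporter signal indicates esBAF inhibition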
Experimental parameters: 24 h, at 12.5 µM, active compounds read high, 100% = twice the neutral-well signal
Among all 350,000 compounds or so, about 7,000 (2%) were called active. What follows is part of a selection rich in actives, with near analogues and random picks from the rest.
Property label: reporter increase

Answered examples (5):
CN(c1cccc(NC(=O)Nc2ccc(Cl)cc2)c1)S(C)(=O)=O 50.6% (active)
COc1ccc(S(=O)(=O)Nc2cccc3c2O[C@@H](CN(C)C(=O)NC(C)C)[C@H](C)CN([C@@H](C)CO)C3=O)cc1 -7.18% (inactive)
CN(c1cccc(NC(=O)c2ccc(CN3CCc4ccccc4C3)cc2)c1)S(C)(=O)=O -0.323% (inactive)
C[C@H](O)C#Cc1cnc2c(c1)C(=O)N([C@@H](C)CO)C[C@@H](C)[C@@H](CN(C)C(=O)Cc1ccccn1)O2 -2.01% (inactive)
Cc1nc(N)sc1-c1ccccc1 0.609% (inactive)

Ask: Need reporter increase of "CO[C@@H](CN(C)S(=O)(=O)c1cccc(Cl)c1)[C@H](C)CN([C@H](C)CO)S(=O)(=O)c1cccc(Cl)c1" , thanks.
Reply: 6.95% (inactive)

Ask: Now give it for "COc1ccc(/C=N/Nc2nc3ccccc3o2)cc1OC" too.
Reply: 45.9% (active)

Ask: Can you handle "CCOc1ccccc1/C=N/Nc1nc2ccccc2o1" next?
Reply: 25.5% (inactive)

Ask: Consider next the compound "Cc1ccc(OCc2nc(C#N)c(N3CCCC3)o2)cc1" in the same way.
Reply: 6.84% (inactive)

Ask: Also "Brc1ccccc1/C=N/Nc1nc2ccccc2o1" ?
Reply: 66.2% (active)

Reference source for all entries: PubChem BioAssay AID602393
